- assay target: Plasma kallikrein (Homo sapiens)
- Sequence (P03952 20-390 limits assumed): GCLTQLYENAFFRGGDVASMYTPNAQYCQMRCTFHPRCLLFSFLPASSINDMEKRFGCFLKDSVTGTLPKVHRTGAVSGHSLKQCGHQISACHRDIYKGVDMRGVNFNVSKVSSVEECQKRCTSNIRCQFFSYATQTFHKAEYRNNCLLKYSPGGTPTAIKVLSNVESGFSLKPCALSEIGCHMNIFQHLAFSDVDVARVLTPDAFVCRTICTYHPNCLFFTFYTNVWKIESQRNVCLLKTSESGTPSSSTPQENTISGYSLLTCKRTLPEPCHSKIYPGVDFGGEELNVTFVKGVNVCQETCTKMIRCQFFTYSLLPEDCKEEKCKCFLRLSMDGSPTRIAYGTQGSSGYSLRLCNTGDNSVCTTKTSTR
- Sequence (P03952 391-638 limits assumed): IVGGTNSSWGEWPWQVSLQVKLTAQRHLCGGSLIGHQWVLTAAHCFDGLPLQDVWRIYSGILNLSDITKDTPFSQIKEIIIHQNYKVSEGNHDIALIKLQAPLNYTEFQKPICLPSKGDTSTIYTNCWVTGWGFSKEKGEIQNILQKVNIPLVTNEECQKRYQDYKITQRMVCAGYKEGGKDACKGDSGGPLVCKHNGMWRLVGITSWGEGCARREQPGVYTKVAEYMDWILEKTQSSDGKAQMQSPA
- assay summary: Inhibition of human plasma kallikrein
quantity: pKi
Answers are plain numbers, as −log10 of the molar value.

Ask: Lab request: please report pKi under test system Plasma kallikrein (Homo sapiens) for NC[C@H]1CC[C@H](C(=O)N[C@@H](Cc2ccccc2)c2cc(-c3ccc4c(N)n[nH]c4c3)ccn2)CC1
Reply: 7.62

====

- assay target: Coagulation factor XI (Homo sapiens)
- Sequence (P03951 19-387 limits assumed): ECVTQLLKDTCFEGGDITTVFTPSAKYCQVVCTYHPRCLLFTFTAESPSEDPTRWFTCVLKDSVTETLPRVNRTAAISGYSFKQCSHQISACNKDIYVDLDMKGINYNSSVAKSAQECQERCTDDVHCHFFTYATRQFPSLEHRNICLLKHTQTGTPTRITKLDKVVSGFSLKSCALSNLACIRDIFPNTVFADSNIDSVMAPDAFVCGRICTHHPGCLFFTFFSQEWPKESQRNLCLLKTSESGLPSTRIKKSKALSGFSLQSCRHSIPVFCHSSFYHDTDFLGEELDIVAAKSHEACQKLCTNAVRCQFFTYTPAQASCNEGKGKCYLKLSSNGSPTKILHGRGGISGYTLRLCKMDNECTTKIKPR
- Sequence (P03951 388-625 limits assumed): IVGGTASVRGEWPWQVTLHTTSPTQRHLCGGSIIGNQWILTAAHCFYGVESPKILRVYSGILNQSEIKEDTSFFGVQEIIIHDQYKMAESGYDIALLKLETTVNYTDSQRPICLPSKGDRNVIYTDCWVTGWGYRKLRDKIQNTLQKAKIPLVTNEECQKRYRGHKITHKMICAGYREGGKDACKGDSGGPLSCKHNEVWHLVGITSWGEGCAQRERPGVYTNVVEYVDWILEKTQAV
quantity: Ki

# compound, assay target, Ki
rows = [
    ("NC[C@H]1CC[C@H](C(=O)NC(Cc2ccccc2)c2cc(-c3ccc4c(N)n[nH]c4c3)ccn2)CC1 (mixture of isomers)", "Coagulation factor XI (Homo sapiens)", "13 nM"),
    ("NC[C@H]1CC[C@H](C(=O)NC(Cc2ccccc2)c2cccc(-c3ccc4c(N)n[nH]c4c3)c2)CC1 (mixture of isomers)", "Coagulation factor XI (Homo sapiens)", "42 nM"),
    ("NC[C@H]1CC[C@H](C(=O)NC(Cc2ccccc2)c2cc(-c3ccccc3)cc(N)n2)CC1 (mixture of isomers)", "Coagulation factor XI (Homo sapiens)", "227 nM"),
]

Give one value of Ki per listed compound.
1. NC[C@H]1CC[C@H](C(=O)NC(Cc2ccccc2)c2cc(-c3ccccc3)cc[n+]2[O-])CC1 (mixture of isomers)
2. NC[C@H]1CC[C@H](C(=O)N[C@@H](Cc2ccccc2)c2cc(-c3ccc4c(N)n[nH]c4c3)ccn2)CC1
3. NC[C@H]1CC[C@H](C(=O)NC(Cc2ccccc2)c2cncc(-c3ccccc3)c2)CC1 (mixture of isomers)

Reply:
["1690 nM", "8.4 nM", "330 nM"]

Give one value of Ki per listed compound.
1. NC[C@H]1CC[C@H](C(=O)NC(Cc2ccccc2)c2cc(-c3ccccc3)c(F)cn2)CC1 (mixture of isomers)
2. NC[C@H]1CC[C@H](C(=O)NC(Cc2ccccc2)c2cc(-c3ccccc3)cc(O)n2)CC1 (mixture of isomers)

Reply:
["433 nM", "113 nM"]

These entries and their values trace back to ChEMBL document CHEMBL3393047.
